protocol notes: refractive index (Na D-line) (dimensionless); xn = mol fraction of the nth substance listed
assay setup: 288.15 K; 100.5 kPa; Liquid; Standard Abbe refractometry; x1 = 0.3
measured endpoint: refractive index

>>> print(df.to_string())
                                   compound  measured_endpoint  measured_number
0  CCOC(=O)CC(C)=O [ethyl 3-oxobutanoate] + CCO   refractive index           1.3918
1  CCOC(=O)c1ccccc1O [ethyl 2-hydroxybenzoate] + CCO   refractive index          1.44918
2  CCC(=O)OCc1ccccc1 [benzyl propanoate] + CCO   refractive index          1.43817
3  CC(=O)OCc1ccccc1 [benzyl ethanoate] + CCO   refractive index          1.43696
4   COC(=O)c1ccccc1 [methyl benzoate] + CCO   refractive index          1.44018
5  CCOC(=O)CC(C)C [ethyl 3-methylbutanoate] + CCO   refractive index          1.38213
